assay-comment: in vitro
run-parameters: human, liver microsomes
Description: Half life in human liver microsomes at 1 uM in presence of NADPH by LC-MS/MS method

{"columns": ["molecule", "half-life at 1 µM"],
 "data": [
  ["O=S1(=N[C@H]2CC[C@@H](C(F)(F)F)CC2)CCCCC1", "0.867 h"],
  ["CS(=N)(=O)c1ccc(C(F)(F)F)cc1 (configuration not stated)", "> 2.17 h"],
  ["O=S1(=Nc2ccc(C(F)(F)F)cc2)CCC1", "> 2.17 h"],
  ["O=S1(=Nc2ccccc2)CCCCC1", "> 2.17 h"],
  ["CC(=O)Nc1ccc(C(F)(F)F)cc1", "1 h"],
  ["O=S1(=Nc2cccnc2)CCCCC1", "0.133 h"],
  ["N=S1(=Nc2ccc(C(F)(F)F)cc2)CCCCC1", "1.83 h"],
  ["CS(C)(=N)=NC(=O)c1ccc(C(F)(F)F)cc1", "> 2.17 h"],
  ["O=S1(=Nc2ccc(C(F)(F)F)cc2)CCNCC1", "1.83 h"],
  ["CCS(C)(=O)=Nc1ccc(C(F)(F)F)cc1 (configuration not stated)", "> 2.17 h"],
  ["O=S1(=Nc2ccc(C(F)(F)F)cc2)CCCCC1", "0.767 h"],
  ["CS(=O)(=Nc1ccc(C(F)(F)F)cc1)C1CCOCC1 (configuration not stated)", "> 2.17 h"],
  ["O=S1(=Nc2ccncc2)CCCCC1", "> 2.17 h"],
  ["O=S1(=Nc2ccc(F)cc2)CCCCC1", "2 h"],
  ["C[S@](=O)(=Nc1ccc(C(F)(F)F)cc1)c1ccccc1", "> 2.17 h"],
  ["N#Cc1ccc(N=S2(=O)CCCCC2)cc1", "> 2.17 h"],
  ["CS(C)(=O)=N[C@H]1CC[C@@H](C(F)(F)F)CC1", "> 2.17 h"],
  ["C[S@@](=O)(=Nc1ccc(C(F)(F)F)cc1)c1ccccc1", "> 2.17 h"],
  ["O=S1(=Nc2ccccc2Cl)CCCCC1", "0.467 h"],
  ["CC(C)(C)NC(=O)Nc1ccc(C(F)(F)F)cc1", "> 2.17 h"],
  ["CS(C)(=O)=NC(=O)c1ccc(C(F)(F)F)cc1", "1.03 h"],
  ["CNS(=N)(=O)c1ccc(C(F)(F)F)cc1 (configuration not stated)", "0.783 h"],
  ["CS(C)(=O)=NC(=O)Nc1ccc(C(F)(F)F)cc1", "> 2.17 h"],
  ["O=S1(=Nc2ccc(C(F)(F)F)cc2)CCCC1", "1.83 h"],
  ["C[S+]([O-])Cc1ccc(C(F)(F)F)cc1 (configuration not stated)", "1.83 h"],
  ["COc1ccc(N=S2(=O)CCCCC2)cc1", "> 2.17 h"],
  ["CN=S(=O)(c1ccc(C(F)(F)F)cc1)N(C)C (configuration not stated)", "> 2.17 h"],
  ["NS(=O)(=O)c1ccc(C(F)(F)F)cc1", "> 2.17 h"],
  ["CC(C)(C)NC(=O)c1ccc(C(F)(F)F)cc1", "> 2.17 h"],
  ["CN(C)S(C)(=O)=Nc1ccc(C(F)(F)F)cc1 (configuration not stated)", "0.7 h"],
  ["CNS(C)(=O)=Nc1ccc(C(F)(F)F)cc1 (configuration not stated)", "> 2.17 h"],
  ["O=S1(=Nc2ccc(C(F)(F)F)cc2)CCOCC1", "> 2.17 h"],
  ["Cn1cc(N=S2(=O)CCCCC2)cn1", "> 2.17 h"],
  ["CNS(=O)(=O)c1ccc(C(F)(F)F)cc1", "> 2.17 h"],
  ["CNC(=O)c1ccc(C(F)(F)F)cc1", "> 2.17 h"],
  ["CN=S(C)(=O)c1ccc(C(F)(F)F)cc1 (configuration not stated)", "> 2.17 h"],
  ["CS(C)(=N)=Nc1ccc(C(F)(F)F)cc1", "> 2.17 h"],
  ["CS(C)(=O)=Nc1ccc(C(F)(F)F)cc1", "> 2.17 h"],
  ["CS(=O)(=Nc1ccc(C(F)(F)F)cc1)C1CC1 (configuration not stated)", "> 2.17 h"],
  ["CS(=O)(=O)NC(=O)c1ccc(C(F)(F)F)cc1", "> 2.17 h"],
  ["CS(=O)(=Nc1ccc(C(F)(F)F)cc1)c1cccnc1 (configuration not stated)", "> 2.17 h"],
  ["CS(=O)(=O)Nc1ccc(C(F)(F)F)cc1", "> 2.17 h"]
]}
